Measured pKd, listed per entry.
TARGET OR TEST SYSTEM: T1, Recombinant MBP-mutCALR Type 1 fusion protein (human)
T1 construct: custom made at Cepter; also called recombinant mutCALR protein
PROCEDURE DETAILS: SPR, IgG captured, 1:1 fit, Exp. 2
Reminder that pKd means the negative base-10 logarithm of the concentration expressed in mol/L.

Below: 2 binders and their reported pKd.
anti-mutCALR antibody clone 65 (antibody, human IgG1, lambda, N297A, V domains shown, human IgG1 N297A variant of clone 6) VH: EVQLVQSGAEVKKPGASVKVSCKVSGYTLTELSMQWVRQAPGKGLEWMGGFDPDDGETMYAEKFQGRLTVTEDTSTDTVYMELRSLTSEDTALYFCATSPGYDFFDYWGQGTLVTVSS VL: SYVLTQPPSVSVAPGKTARITCTGTSSDVGGYNYVSWYQQKPGQAPVLVVYEVSNRPSGIPERFSGSNSGNTATLTISRVEAGDEADYYCQVWDSSNDLLIFGGGTKLTVLG : 9.30
anti-mutCALR antibody clone 77 (antibody, human IgG1, lambda, N297A, V domains shown, human IgG1 N297A variant of clone 6) VH: EVQLVQSGAEVKKPGASVKVSCKVSGYTLTELSMQWVRQAPGKGLEWMGGFDPDSGETMYAEKFQGRLTVTEDTSTDTVYMELRSLTSEDTALYFCATSPGYDFFDYWGQGTLVTVSS VL: SYVLTQPPSVSVAPGKTARITCGGNNIGSKSVHWYQQKPGQAPVLVVYDDSDRPSGIPERFSGSNSGNTATLTISRVEAGDEADYYCQVWDSSNDLLIFGGGTKLTVLG : 8.25

Next, consider the following binder.
Input: If you can, please state the reported pKd value of anti-mutCALR antibody clone 74 (antibody, human IgG1, lambda, N297A, V domains shown, human IgG1 N297A variant of clone 6) VH: EVQLVQSGAEVKKPGASVKVSCKVSGYTLTELSMQWVRQAPGKGLEWMGGFDPDDAETMYAEKFQGRLTVTEDTSTDTVYMELSSLRSEDTAVYFCATSPGYDFFDYWGQGTLVTVSS VL: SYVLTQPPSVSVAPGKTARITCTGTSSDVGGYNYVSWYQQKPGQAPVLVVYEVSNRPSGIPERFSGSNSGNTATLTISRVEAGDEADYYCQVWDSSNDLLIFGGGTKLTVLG .
Output: 8.92
